- assay-procedure: in vitro;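 further: compound quantified by LC-MS/MS in donor and receiver wells, efflux ratio as B-A over A-B Papp, recovery relative to initial donor amount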
- condition-info: pig, LLC-PK1 MOCK cell monolayer (Transwell), pH 7.4
Catalogue of recovery at 2 h, 2 µM readings, one per entry.
recorded-endpoint: recovery at 2 h, 2 µM (%)

1. CC(C)(C)NCC(O)c1ccc(O)c(CO)c1 (stereo not drawn) [Salbutamol]: 98.1
2. COc1cc([C@@H]2c3cc4c(cc3[C@@H](O[C@@H]3O[C@@H]5CO[C@@H](C)O[C@H]5[C@H](O)[C@H]3O)[C@H]3COC(=O)[C@H]23)OCO4)cc(OC)c1O [Etoposide]: 106
3. COc1ccc2c(c1)c(CC(=O)O)c(C)n2C(=O)c1ccc(Cl)cc1 [Indomethacin]: 109
